Taken from paper PMC12005470.

# ASSAYED SYSTEM: breast cancer resistance protein (BCRP/ABCG2) (Homo sapiens)
# Sequence (Q9UNQ0 1-655): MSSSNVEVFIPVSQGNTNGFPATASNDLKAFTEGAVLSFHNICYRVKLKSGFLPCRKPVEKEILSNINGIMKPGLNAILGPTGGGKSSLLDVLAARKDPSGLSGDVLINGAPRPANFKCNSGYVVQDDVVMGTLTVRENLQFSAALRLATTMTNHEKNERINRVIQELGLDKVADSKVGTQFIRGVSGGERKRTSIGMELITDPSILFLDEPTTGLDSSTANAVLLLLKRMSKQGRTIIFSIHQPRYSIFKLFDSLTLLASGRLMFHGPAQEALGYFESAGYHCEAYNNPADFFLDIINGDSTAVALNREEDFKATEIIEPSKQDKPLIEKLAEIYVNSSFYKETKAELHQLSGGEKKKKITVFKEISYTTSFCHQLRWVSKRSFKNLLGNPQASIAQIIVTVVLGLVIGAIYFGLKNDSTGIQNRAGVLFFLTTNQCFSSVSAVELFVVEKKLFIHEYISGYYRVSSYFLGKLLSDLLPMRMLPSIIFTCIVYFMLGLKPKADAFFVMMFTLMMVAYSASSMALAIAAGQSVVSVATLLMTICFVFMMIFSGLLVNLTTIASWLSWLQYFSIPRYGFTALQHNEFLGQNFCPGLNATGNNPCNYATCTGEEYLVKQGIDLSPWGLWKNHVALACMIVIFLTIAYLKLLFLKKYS
# TEST DETAILS: cell-based
pIC50: −log10 of the molar value.
VALUE TYPE: pIC50

* O=C(/C=C/c1ccccc1)c1ccccc1 | 5.66
